- System: HT1080 viability, ATPLite luminescence, overnight
- procedure_text: HT1080 parental cell cytotoxicity, dose response, cytotoxicity control for MT1-MMP activation inhibitor project, ATPLite luminescence, set 2 (AID 652246)
The source made the active and inactive calls. No rule for the calls is given here.
Give one outcome, nothing more. List: active, inactive

These solved cases illustrate the format of a correct answer.
| smi | qualitative_label |
| --- | --- |
| Cn1cccc1/C=C1/C(=O)NC(=S)N(Cc2ccc(F)cc2)C1=O | inactive |
| O=S(=O)(O)c1cc(O)c(N=Nc2ccc(O)cc2O)c2ccccc12 | inactive |
| Cc1c(C(=O)O)c(O)cc2c1C(=O)c1c(O)c([C@@H]3O[C@H](CO)[C@@H](O)[C@H](O)[C@H]3O)c(O)c(O)c1C2=O | inactive |
| CN1/C(=C\C(=O)c2cncc(Br)c2)C(C)(C)c2ccccc21 | inactive |
| COc1ccc2nc(-n3c(O)c(C4=c5ccccc5=NC4=O)[nH]c3=S)sc2c1 | inactive |
| CN(C)/C=C/c1oc2ccc(O)cc2c1[N+](=O)[O-] | inactive |
| COc1ccccc1N=Nc1nc(-c2ccccc2)c(-c2ccccc2)[nH]1 | inactive |
| CN(CCCC(=O)O)c1ccc(N=Nc2ccc([N+](=O)[O-])cc2)cc1 | active |
| Cc1ccc(C(=O)NNc2c3ccccc3nc3ccccc23)cc1 | inactive |
| CC[n+]1c(/C=C/Nc2ccccc2)sc2ccccc21 | inactive |

Outcome logged for Oc1ccc(N=Nc2c(O)ccc3ccccc23)cc1 in this assay:
inactive

Outcome logged for C[n+]1c2ccccc2nc2ccc(NCCO)cc21 in this assay:
inactive

Outcome logged for CN1/C(=C\C=N\NC(=O)c2ccc(O)cc2)C(C)(C)c2ccccc21 in this assay:
inactive
